target: CD40 on peripheral blood mononuclear cells (PBMC) from healthy donors (human, UniProt P25942 21-277); assay: cell-based or functional assay
Sequence (P25942 21-277): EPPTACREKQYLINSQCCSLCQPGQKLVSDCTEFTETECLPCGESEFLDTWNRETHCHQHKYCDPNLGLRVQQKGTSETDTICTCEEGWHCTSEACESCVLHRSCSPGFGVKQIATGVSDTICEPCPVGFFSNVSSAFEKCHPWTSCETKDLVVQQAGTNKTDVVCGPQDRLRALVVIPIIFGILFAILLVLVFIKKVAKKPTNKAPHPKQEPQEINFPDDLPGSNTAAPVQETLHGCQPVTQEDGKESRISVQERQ
Each entry below carries its recorded Percentage inhibition of TNF secretion at 1 ng/ml.
The figure you give is taken to be in %; do not add the unit.

See these solved cases before continuing.
Entry PG102_Var14 (antibody, human IgG4 S228P, kappa, V domains shown, IgG4pro(deltaK)/kappa; also called FFP104_Var14) VH: QVQLQESGPGLVKPSETLSITCTVSGFSLSRYSVYWVRQPPGKGLEWMGMMWGGGSTDYSTSLKSRLTISKDTSKSQVSLKMSSLTAADTAVYYCVRTDGDYWGQGTLVTVSS VL: DIVMTQSPLSLPVTPGQPASISCRSSQSLASSQGNTYLHWYLQKPGQSPRLLIYKVSNRFSGVPDRFSGSGSGTDFTLKISRVEAEDVGVYYCSQSTHVPWTFGGGTKLEIKR — recorded Percentage inhibition of TNF secretion at 1 ng/ml = 21.8

Entry PG102_Var1 (antibody, human IgG4 S228P, kappa, V domains shown, IgG4pro(deltaK)/kappa; also called FFP104_Var1) VH: QVQLQESGPGLVKPSETLSITCTVSGFSLSRYSVYWIRQPPGKGPEWMGMMWGGGSTDYSTSLKSRLTISKDTSKSQVSLKMSSLTAADTAVYYCVRTDGDYWGQGTLVTVSS VL: ELQLTQSPLSLPVTLGQPASISCRSSQSLASSSGNTYLHWYLQRPGQSPRLLIYKVSNRFSGVPDRFSGSGSGTDFTLKISRVEAEDVGVYYCSQSTHVPWTFGGGTKLEIKR — recorded Percentage inhibition of TNF secretion at 1 ng/ml = -0.9

Entry PG102_Var3 (antibody, human IgG4 S228P, kappa, V domains shown, IgG4pro(deltaK)/kappa; also called FFP104_Var3) VH: QVQLQESGPGLVKPSQTLSLTCTVSGFSLSRYSVYWVRQPPGKGLEWIGMMWGGGSTDYNPSLKSRLTISKDTSKSQVSLKLSSLTAADTAVYYCVRTDGDYWGQGTLVTVSS VL: ELQLTQSPLSLPVTLGQPASISCRSSQSLASSSGNTYLHWYLQRPGQSPRLLIYKVSNRFSGVPDRFSGSGSGTDFTLKISRVEAEDVGVYYCSQSTHVPWTFGGGTKLEIKR — recorded Percentage inhibition of TNF secretion at 1 ng/ml = 16.1

---
Entry PG102 wild-type recombinant antibody (antibody, human IgG4 S228P, kappa, V domains shown, Human IgG4pro(deltaK) heavy, kappa light; also called PG102_Wt; PG102 wt) VH: QVKLQESGPGLVKPSETLSITCTVSGFSLSRYSVYWIRQPPGKGPEWMGMMWGGGSTDYSTSLKSRLTISKDTSKSQVSLKMNSLRTDDTAMYYCVRTDGDYWGQGTTVTVSS VL: ELQLTQSPLSLPVTLGQPASISCRSSQSLANSNGNTYLHWYLQRPGQSPRLLIYKVSNRFSGVPDRFSGSGSGTDFTLKISRVEAEDVGVYYCSQSTHVPWTFGGGTKLEIKR — recorded Percentage inhibition of TNF secretion at 1 ng/ml = -5.2

// data source = patent US11396552
